# Tested on: RXF 393
# experiment_description: NCI tumour cell line growth inhibition, 48 h
Active and inactive are the calls of the source. Cut-off read from the data, not from the text of the source: active = GI50 up to about 1.1 µM and inactive = higher.
The reply should name one outcome from class 1 (active), class 0 (inactive)

- molecule: "Cc1cn(C2CC(O)C(Cn3nncc3Cn3nc(Br)c(=O)[nH]c3=O)O2)c(=O)[nH]c1=O (stereo not given)"
  class_label: "class 0"
- molecule: "c1ccc2c(c1)oc1ccc3nsnc3c12"
  class_label: "class 0"
- molecule: "COC(=O)C(=O)CC(=O)c1cccc(OC)c1"
  class_label: "class 0"

Field: outcome | Entry: Cc1cc(=O)oc2c(CNC(CO)C(=O)O)c(O)ccc12 (stereo not given)
class 0

Could you please tell me the result logged for COc1ccc(CC2NC(=O)/C=C/CC(C(C)C3OC3c3ccccc3)OC(=O)C(CC(C)C)OC(=O)C(C)CNC2=O)cc1Cl (stereo not given) in this assay?
class 1

Lab log entry: Cc1ccc(NC(=O)/C(Cc2nc3ccc([N+](=O)[O-])cc3nc2O)=N\NC(=O)C[n+]2ccccc2)c(C)c1 — outcome as called in the assay?
class 0

Hi team, can someone confirm the assay call for COc1ccc(/C=C2\N=C(c3ccccc3)OC2=O)cc1OC(C)=O ?
class 0

# outcome recorded in this test, key = Cc1ccc(NC(=O)CC2Sc3ccccc3NC2=O)cc1C (stereo not given)
class 0

Each molecule tested received a call. Report the one for O=[N+]([O-])c1nccn1CC(O)CN1CC1 (stereo not given) .
class 0

Could you kindly confirm the outcome this assay logged for O=C(/C=N/O)Nc1ccc(Cl)c(I)c1 ?
class 0

Origin of measurements: ChEMBL document CHEMBL1201862
